Taken from the supplement of paper PMC8253809.

System: HGGX6 (H3.3 G34R paediatric high-grade glioma line)
Assay: EC50 (inflection of fitted growth-inhibition curve) (log10 M)
EC50 (log10 M) values for the compounds below.
Lab note: jot down the number only; don't add units.

Solved cases (3 shown):
| compound | system-tested | assay-value |
| --- | --- | --- |
| CCC(CC)(NC(=O)C(C)C)C(=O)N[C@@H](CCCN=C(N)N)C(=O)NC1(C(=O)NC(c2ccc(F)cc2)c2ccc(F)cc2)CCCC1 | HGGX6 | -5.03 |
| CS(=O)(=O)CCNCc1ccc(-c2ccc3ncnc(Nc4ccc(OCc5cccc(F)c5)c(Cl)c4)c3c2)o1 | HGGX6 | -4.69 |
| CC(=O)c1ccc2c(c1)c1cc(C(C)=O)ccc1n2CCNC(C)C | HGGX6 | -5.37 |

If you can, please state the reported EC50 (log10 M) value of COc1cc(OC2CCN(C)CC2)ccc1Nc1ncc2c(n1)n(C1CCCC1)c(=O)n2C .
-4.82

Quick one: EC50 (log10 M) of O=C(O)C[C@H](O)C[C@H](O)/C=C/c1c(C2CC2)nc2ccccc2c1-c1ccc(F)cc1 ?
-5.36

Item CC(C)c1cc(-c2n[nH]c(=O)n2-c2ccc3c(ccn3C)c2)c(O)cc1O has what recorded EC50 (log10 M)?
-7.85

Please give the measured EC50 (log10 M) for this compound: Cc1ccc(C(=O)Nc2ccc(Oc3cc4cnn(C)c4cc3-c3cn[nH]c3)c(F)c2)c(=O)n1-c1ccc(F)cc1
-5.1

# input compound: NC(=O)Nc1sc(-c2ccc(F)cc2)cc1C(N)=O ; wanted: its EC50 (log10 M)
-5.19

Can you look up the measured EC50 (log10 M) of CN1CCN(CCCN2c3ccccc3Sc3ccc(C(F)(F)F)cc32)CC1 for me?
-4.78

What value of measured EC50 (log10 M) is listed for COc1cc(C(=O)N2CC[C@@H](O)[C@@H](N)C2)cc2nc(-c3cc4ccccc4n3CC3CC3)n(C)c12 ?
-4.98

Recorded EC50 (log10 M) of COc1cc(Nc2ncc3c(n2)-c2ccc(Cl)cc2C(c2c(F)cccc2OC)=NC3)ccc1C(=O)O , please.
-5.31

Report EC50 (log10 M) for Clc1ccc(CSC(Cn2ccnc2)c2ccc(Cl)cc2Cl)cc1 (configuration not stated) please.
-4.87

Look at this compound and give its reported EC50 (log10 M). Cc1ccc2nc(NCCN)c3ncc(C)n3c2c1
-4.92
